measurementDescription: Acute toxicity, LD50 in mice
condition: mouse, in vivo, iv
readoutName: LD50 (mg/kg)
Number only, in mg/kg; omit the unit.

Could you please provide reported LD50 for CC(C)(CCn1cnc2ccccc21)NCC(O)c1ccc(O)cc1F (stereo not shown) [Example 6] ? Thanks! 29

###

System: acetylcholine bronchospasm
measurementDescription: Bronchospasmolysis: influence on acetylcholine bronchospasm in guinea pigs under urethane anaesthesia, body plethysmography
Assay type: in vivo
condition: Cavia porcellus, intravenous, read-out: Broncholysis ED50 intravenous
Procedure: 1. Bronchospasmolysis The activity was tested on guinea pigs under urethane anaesthesia. Body plethysmography was used to determine the influence on acetylcholine bronchospasm after intravenous and oral application.
Parameter log10(ED50): see the listing below.
Could you please treat all values as log10 of ED50 in µg/kg?

Known results for compounds:
[
  {
    "compound": "CC(C)(CCn1cnc2ccccc21)NCC(O)c1ccc(O)cc1Cl (stereo not drawn) [Table II, 21st compound]",
    "targetEntity": "acetylcholine bronchospasm",
    "log10(ED50)": 0.88
  },
  {
    "compound": "CC(C)(C)NCC(O)c1ccc(O)c(CO)c1 (stereo not drawn) [Salbutamol, reference compound]",
    "targetEntity": "acetylcholine bronchospasm",
    "log10(ED50)": 0.96
  },
  {
    "compound": "CC(C)(CCn1cnc2ccccc21)NCC(O)c1ccc(O)c(NC(N)=O)c1 (stereo not drawn) [Table III, 15th compound]",
    "targetEntity": "acetylcholine bronchospasm",
    "log10(ED50)": -0.05
  },
  {
    "compound": "CC(=O)Nc1cc(C(O)CNC(C)(C)CCn2cnc3ccccc32)ccc1O (stereo not drawn) [Table II, 16th compound]",
    "targetEntity": "acetylcholine bronchospasm",
    "log10(ED50)": 0.26
  },
  {
    "compound": "CC(C)(CCn1cnc2ccccc21)NCC(O)c1ccc(O)cc1F (stereo not drawn)",
    "targetEntity": "acetylcholine bronchospasm",
    "log10(ED50)": 0.56
  }
]

In the following, a different compound is considered.
Could you please provide reported log10(ED50) for CC(C)(CCn1cnc2ccccc21)NCC(O)c1ccc(O)c(CO)c1 (stereo not drawn) [Table III, 16th compound] ? Thanks! 0.08
